# DETAILS: 298.15 K; 101.33 kPa; Liquid; Vibrating tube method
Returns: string. Value is rule met if measured mass density is below 1000 kg/m3, and rule not met if it is greater than or equal to it.

compound=Cc1ccccc1 group="rule met"

// query Lab note: mass density threshold 1000 kg/m3. Does this compound come in strictly under it? `CCc1ccccc1`
// result rule met

====

# PROTOCOL_SUMMARY: refractive index (Na D-line) (dimensionless)
# DETAILS: 298.15 K; 101.33 kPa; Liquid; Standard Abbe refractometry
EXPERIMENTAL_READOUT: refractive index
// no unit, no text: just the number

Illustrative cases are given below, each with its answer.
compound=CCCn1cc[n+](C)c1.O=S(=O)([N-]S(=O)(=O)C(F)(F)F)C(F)(F)F experimental_readout="refractive index" reported_measurement=1.42526
compound=CCCC[n+]1ccn(C)c1.O=S(=O)([N-]S(=O)(=O)C(F)(F)F)C(F)(F)F experimental_readout="refractive index" reported_measurement=1.42706
compound="C1=CCCCC1 [cyclohexene]" experimental_readout="refractive index" reported_measurement=1.44378
compound="CCCCn1cc[n+](C)c1.COS(=O)(=O)[O-] [1-butyl-3-methylimidazolium methyl sulfate]" experimental_readout="refractive index" reported_measurement=1.47792
compound="CCCCCC [hexane]" experimental_readout="refractive index" reported_measurement=1.37234
compound="CCc1ccccc1 [ethylbenzene]" experimental_readout="refractive index" reported_measurement=1.49304

Next up:
// query What value of refractive index has been recorded for this entry: Cc1ccccc1 [toluene]
// result 1.49399

====

Each record here notes measured mass density.
# DETAILS: 298.15 K; 101.33 kPa; Liquid; Vibrating tube method
Report the value in kg/m3 with no unit label.

Example compounds with recorded mass density:
compound=CCCCCC unit_abbreviation=kg/m3 reported_measurement=655.19
compound="CCCCn1cc[n+](C)c1.COS(=O)(=O)[O-] [1-butyl-3-methylimidazolium methyl sulfate]" unit_abbreviation=kg/m3 reported_measurement=1212.59
compound=C1=CCCCC1 unit_abbreviation=kg/m3 reported_measurement=805.69
compound=CCCn1cc[n+](C)c1.O=S(=O)([N-]S(=O)(=O)C(F)(F)F)C(F)(F)F unit_abbreviation=kg/m3 reported_measurement=1474.44

Below: the item to evaluate.
// query Look up mass density for this compound: `CCCC[n+]1ccn(C)c1.O=S(=O)([N-]S(=O)(=O)C(F)(F)F)C(F)(F)F`
// result 1436.35
